Target: T1, human CD3ε/δ-Fc fusion protein (soluble recombinant CD3ε/δ complex) (human, UniProt P04234 22-105)
T1 construct: also called huCD3ε/δ; huCD3; not shown: hinge, CH2, CH3 of human IgG with tag
T1 sequence (chain, as listed by the source mutant, chain 1 of 2): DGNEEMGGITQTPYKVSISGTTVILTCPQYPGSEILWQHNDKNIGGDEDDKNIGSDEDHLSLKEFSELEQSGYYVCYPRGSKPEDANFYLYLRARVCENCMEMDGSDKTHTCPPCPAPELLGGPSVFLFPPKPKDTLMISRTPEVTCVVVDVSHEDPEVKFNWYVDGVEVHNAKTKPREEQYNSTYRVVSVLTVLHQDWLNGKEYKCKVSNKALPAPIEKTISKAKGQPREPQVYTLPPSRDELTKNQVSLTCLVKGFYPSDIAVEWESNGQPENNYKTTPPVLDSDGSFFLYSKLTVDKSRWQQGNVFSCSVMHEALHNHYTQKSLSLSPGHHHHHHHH
T1 sequence (P04234 22-105, stated change not applied, chain 2 of 2): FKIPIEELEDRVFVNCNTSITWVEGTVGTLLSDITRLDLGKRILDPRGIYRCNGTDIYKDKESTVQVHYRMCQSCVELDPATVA
Assay: SPR Biacore, Fab
So I've got a bunch of binders here, and I need their pKd values.
# log scale: pKd equals minus log10 of the concentration in mol/L

Prompt line: Need pKd of 4E7-C9 Fab (Fab, V domains shown, also called BDX-4E7-C9) VH: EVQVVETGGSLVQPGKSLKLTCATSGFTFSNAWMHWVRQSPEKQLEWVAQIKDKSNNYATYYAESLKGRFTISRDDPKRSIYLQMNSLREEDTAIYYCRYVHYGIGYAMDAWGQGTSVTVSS VL: DVVMTQTPVSLSVSLGGQVSISCRSSQSLEHNNGNTYLSWYLQKPGQSPQPLIYKVSNRFSGISDRFSGSGSGTDFTLKISRVEPDDLGVYYCGQGTQYPFTFGPGTKLELKR , thanks.
Response line: 7.77

Prompt line: And for 20G6-F3 Fab (Fab, V domains shown, also called BDW-20G6-F3) VH: EVQLVETGGSLVQPGKSLKLTCATSGFTFTKAWMHWVRQSPEKQLEWVAQIKDKSNSYATYYAESVKGRFTISRDDSKSTIYLQMNSLKEEDTAIYYCRGVYYALSPFDYWGQGVMVTVSS VL: DVVMTQTPVSLSVSLGGQVSISCRSSQSLVHNNGNTYLSWYLQKPGQSPQSLIYKVSNRFSGFSDRFSGSGSGTDFTLKISRVDPDDLGVYYCGQGTQYPFTFGSGTKLEIKR ?
Response line: 8.10

Prompt line: And for 18F5-H10 Fab (Fab, V domains shown, also called BDX-18F5-H10) VH: EVQVVETGGSLVQPGKSLKLTCATSGFTFTNAWMHWVRRSPEKQLEWVAQIKDKSNNYATYYAESVKGRFTISRDDSKSSIYLQMNSLKEEDTAIYYCRYVHYRFAYALDAWGRGTSVSVSS VL: DVLMTQTPVSLSVSLGGQVSISCRSSQSLVHTNGNTYLSWYLQKPGQSPQLLIYKVSNRLSGISDRFSGSGSGTDFTLKISRVEPDDLGVYYCGQGTHYPFTFGAGTKLELKR ?
Response line: 9.00

Prompt line: And for 4B4-D7 Fab (Fab, V domains shown, also called BDW-4B4-D7) VH: EVQLVETGGRLVQPGRSLKLTCATSGFTFSNAWMHWVRQSPEKQLEWVAQIKARSNNYATYYAESVKGRFTISRDDSKSTIYLQMNSLKEEDTAIYYCRGTYYASKPFDYWGQGVMVTVSS VL: DVVMTQTPVSLSVSLGGQVSISCRSSQSLVHDNGNTYLSWSLQRPGQSPQVLIYKVSNRFSGTSDRFTGSGSGTDFTLKISRVEPDDLGVYYCGQGTQYPFTFGSGTKLEIKR ?
Response line: 7.57
